- System: Vero E6 cells
- protocol-summary: MTT cytotoxicity assay
- Format: cell-based
- conditions-used: Vero E6 cells, MTT, 24 h treatment
measurement-label: CC50 (µM)
Report the value in µM with no unit label.

Value of CC50 reported for the molecule CCC(CC)COC(=O)[C@H](C)N[P@](=O)(OC[C@H]1O[C@@](C#N)(c2ccc3c(N)ncnn23)[C@H](O)[C@@H]1O)Oc1ccccc1 [remdesivir, reference compound] is 415

----------
- protocol-summary: MTT cytotoxicity assay
- Type: cell-based
- conditions-used: African green monkey
measurement-label: CC50 at 24 h (µM)
Numbers only; they are read as µM.

get_value(item= "COc1cc(OC)c2c(O)c3c(=O)cc(C)oc3c(-c3c(OC)cc(OC)c4c(O)c5c(=O)cc(C)oc5cc34)c2c1" , readout=CC50 at 24 h) returns 181
